Tested on: OVCAR-8
Assay: NCI tumour cell line growth inhibition, 48 h
Calls of active or inactive are those of the source. No stated cut-off is given here; in the data, active = GI50 up to about 1.1 µM and inactive = higher.
Please reply with one of these outcomes: T for active, F for inactive

QUERY: Record request — test call for CN(C)CCCc1cccnc1
RESULT: F

QUERY: Record request — test call for COC(=O)[C@@H]1C[C@]2(CC=C(C)C)c3ccccc3N(S(=O)(=O)c3ccccc3)[C@@H]2N1C(=O)OC
RESULT: F

QUERY: Record request — test call for OCC1OC(n2cnc3c(Cl)nc(Nc4ccccc4)nc32)CC1O (stereo not drawn)
RESULT: F

QUERY: Record request — test call for O=[N+]([O-])c1c(Br)cc(Br)c2c1Nc1c(ccc(Cl)c1Cl)S2
RESULT: F

QUERY: Record request — test call for COc1ccc(-c2c3ccccc3c(-c3ccc(OC)cc3)c3ccccc23)cc1
RESULT: F

QUERY: Record request — test call for N=C(N)NS(=O)(=O)c1ccc(NC(=O)c2cccc3cc4ccccc4nc23)cc1
RESULT: F

QUERY: Record request — test call for Cc1cccc(C)c1NC(=O)/C(Cc1nc2ccc([N+](=O)[O-])cc2nc1O)=N\NC(N)=O
RESULT: F

QUERY: Record request — test call for CCOC(=O)C1(Cc2ccc(C)cc2)Cc2ccc(C)cc2C1=O (stereo not drawn)
RESULT: F

QUERY: Record request — test call for c1ccc(-c2cnc3nc4ccccc4nc3n2)cc1
RESULT: F

QUERY: Record request — test call for CC(NC1=CC(=O)c2cccnc2C1=O)C(O)c1ccccc1 (stereo not drawn)
RESULT: F

QUERY: Record request — test call for COC(=O)CCC1=NOC(CC2CC(CCC(=O)OC)=NO2)C1 (stereo not drawn)
RESULT: F

QUERY: Record request — test call for CCO/N=[N+](\[O-])N(CC)CC
RESULT: F

QUERY: Record request — test call for C[N+]1=c2c3cccc4cccc(c(=O)n2CCC1)c43
RESULT: F

QUERY: Record request — test call for C=CCC1C2CCC(O[Si](C(C)C)(C(C)C)C(C)C)(C(C(=O)OC)C2)C1O (stereo not drawn)
RESULT: F

QUERY: Record request — test call for O=[N+]([O-])c1ccc2sc(/C=N/c3ccccn3)cc2c1
RESULT: F

QUERY: Record request — test call for CC(C)(C)c1cc(C(C)(C)C)c2c(c1O)OC(=O)CS2
RESULT: F

QUERY: Record request — test call for O=C1C(c2ccccc2)=[N+]([O-])c2cc([N+](=O)[O-])ccc21
RESULT: F

QUERY: Record request — test call for COc1cc(/C=C2\C[C@H]3[C@@H]4CC=C5C[C@@H](O)CC[C@]5(C)[C@H]4CC[C@]3(C)[C@H]2O)cc(OC)c1OC
RESULT: F

QUERY: Record request — test call for C/C=N\N1C(=O)c2ccccc2C1=O
RESULT: F

QUERY: Record request — test call for O=C1c2c(O)cccc2C(C(=O)CCCCC(=O)C2c3cccc(O)c3C(=O)c3c(O)cccc32)c2cccc(O)c21
RESULT: T

QUERY: Record request — test call for O=C1Nc2cccc(C(F)(F)F)c2/C1=N/Nc1ccccc1[N+](=O)[O-]
RESULT: F

QUERY: Record request — test call for N#C[C@]12CC3(CC[C@H]1CC1(C2)OCCO1)OCCO3
RESULT: F

QUERY: Record request — test call for Nc1ccc(S(=O)(=O)Nc2nc3ccccc3nc2N2CCCCCC2)cc1
RESULT: F

QUERY: Record request — test call for C=C1C(=O)O[C@H]2C1[C@H](OC(=O)/C(C)=C\COC(C)=O)C[C@]1(CO1)[C@@H]1[C@H](O)[C@H]3O[C@@]3(C)[C@@H]12 (stereo partly drawn)
RESULT: F

QUERY: Record request — test call for COC(=O)C(=NNc1ccccc1[N+](=O)[O-])C(=O)OC
RESULT: F

QUERY: Record request — test call for CC(=O)OCC1OC(O[C@@H]2C[C@H]3C(C)(C)[C@@H](OC(C)=O)CC[C@]3(C)[C@H]3CC[C@]45C[C@]4(CC[C@H]5[C@@H](C)C[C@@H](O)[C@H](O)C(C)(C)F)[C@@]32C)C(O)C(O)C1O (stereo partly drawn)
RESULT: F

QUERY: Record request — test call for COC(=O)C(C#N)C1NC(=O)c2ccccc21 (stereo not drawn)
RESULT: F

QUERY: Record request — test call for CCOC(=O)Cn1c(=O)[nH]c(=O)c2c1ncn2Cc1ccccc1
RESULT: F

Reference source for all entries: ChEMBL document CHEMBL1201862
